Taken from patent US12139492B2.

Each entry below carries its reported DC50.
Molecular target: BTK (Homo sapiens, UniProt Q06187)
Sequence (Q06187 whole entry): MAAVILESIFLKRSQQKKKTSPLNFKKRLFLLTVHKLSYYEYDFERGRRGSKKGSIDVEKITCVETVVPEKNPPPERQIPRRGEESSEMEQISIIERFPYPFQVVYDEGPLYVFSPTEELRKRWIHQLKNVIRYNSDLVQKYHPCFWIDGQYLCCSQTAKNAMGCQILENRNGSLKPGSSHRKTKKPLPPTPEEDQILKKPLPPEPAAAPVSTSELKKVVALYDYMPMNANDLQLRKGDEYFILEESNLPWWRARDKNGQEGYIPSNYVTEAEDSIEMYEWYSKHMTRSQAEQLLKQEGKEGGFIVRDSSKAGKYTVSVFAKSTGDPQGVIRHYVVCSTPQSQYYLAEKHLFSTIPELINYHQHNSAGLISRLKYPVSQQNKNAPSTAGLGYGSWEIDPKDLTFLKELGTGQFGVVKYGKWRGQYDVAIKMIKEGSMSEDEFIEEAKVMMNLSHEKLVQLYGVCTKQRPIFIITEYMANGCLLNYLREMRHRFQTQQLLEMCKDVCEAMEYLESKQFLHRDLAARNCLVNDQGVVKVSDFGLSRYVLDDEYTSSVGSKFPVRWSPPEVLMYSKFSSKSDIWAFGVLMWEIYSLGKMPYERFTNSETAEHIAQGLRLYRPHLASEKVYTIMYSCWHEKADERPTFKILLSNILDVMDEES
Assay: Degradation of BTK protein in Namalwa cells (Western blot; DC50, Dmax)
Conditions: BTK degradation; cell line not given

Lab note: measured DC50 of NC(=O)c1c(-c2ccc(Oc3ccccc3)cc2)nn2c1NCCC2C1CCN(C2CCN(C(=O)N3CCC(C4CCN(c5ccc6c(c5)CN(C5CCC(=O)NC5=O)C6=O)CC4)CC3)CC2)CC1 (centres unmarked) [Compound 344] was < 10 nM

###

# DC50 annotations
Molecular target: BTK (Homo sapiens)
Experiment: Degradation of BTK protein in Namalwa cells (Western blot; DC50, Dmax)
Details: BTK degradation; cell line not given

Field: example entries. Status: answers known.
Nc1ncnc2c1c(-c1ccc(Oc3ccccc3)cc1)nn2C1CCN(CC2CCN(CCCN3CCN(c4ccc5c(c4)CN(C4CCC(=O)NC4=O)C5=O)CC3)CC2)CC1 (centres unmarked) [Compound 208]
> 50 nM
NC(=O)c1c(-c2ccc(Oc3ccccc3)cc2)nn2c1NCCC2C1CCN(CC2CCN(C(=O)N3CCC(N4CCN(c5ccc6c(c5)C(=O)N(C5CCC(=O)NC5=O)C6=O)CC4)CC3)CC2)CC1 (centres unmarked) [Compound 363]
10 to 50 nM
NC(=O)c1c(-c2ccc(Oc3ccccc3)cc2)nn2c1NCCC2C1CCN(CCOCCOCCN2CCN(c3ccc4c(c3)C(=O)N(C3CCC(=O)NC3=O)C4=O)CC2)CC1 (centres unmarked) [Compound 269]
10 to 50 nM
Nc1ncnc2c1c(-c1ccc(Oc3ccccc3)cc1)nn2C1CCN(C2CCN(C(=O)N3CCN(C4CCN(c5ccc6c(c5)CN(C5CCC(=O)NC5=O)C6=O)CC4)CC3)CC2)CC1 (centres unmarked) [Compound 234]
10 to 50 nM

Switching to the query record.
The recorded DC50 for entry NC(=O)c1c(-c2ccc(Oc3ccccc3)cc2)nn2c1NCC[C@H]2C1CCN(C(=O)N2CCN(CC3CCN(c4ccc5c(c4)C(=O)N(C4CCC(=O)NC4=O)C5=O)CC3)CC2)CC1 (some centres unmarked) [Compound 289] equals 10 to 50 nM
